Can you tell me MIC Aspergillus niger ATCC 16404 for the items I'm about to list?
tested on: Aspergillus niger ATCC 16404; test: Antifungal susceptibility study (1), broth microdilution MIC; type: cell-based; conditions: lowest concentration preventing any visible growth, read at 48 hours, 35° C., RPMI 1640 pH 7.0
Field format: number, assumed µg/mL, no unit text.

stdin: # query: MIC Aspergillus niger ATCC 16404 of entry CNC(=O)C1C(O)CC2(O)CC(O)C(O)CCC(O)CC(O)CC(O)CC(=O)OC(C)C(C)C(O)C(C)C=CC=CC=CC=CC=CC=CC=CC(OC3OC(C)C(O)C(N)C3O)CC1O2 (centres unmarked) [Compound 6]
stdout: 4

stdin: # query: MIC Aspergillus niger ATCC 16404 of entry CC1C=CC=CC=CC=CC=CC=CC=CC(OC2OC(C)C(O)C(NC(=O)C(N)CCCCN)C2O)CC2OC(O)(CC(O)C(O)CCC(O)CC(O)CC(O)CC(=O)OC(C)C(C)C1O)CC(O)C2C(=O)NCCCO (centres unmarked) [Compound 38]
stdout: 2

stdin: # query: MIC Aspergillus niger ATCC 16404 of entry CC1O[C@@H](O[C@H]2/C=C/C=C/C=C/C=C/C=C/C=C/C=C/[C@H](C)[C@@H](O)[C@@H](C)[C@H](C)OC(=O)C[C@H](O)C[C@H](O)C[C@H](O)CC[C@@H](O)[C@H](O)C[C@]3(O)C[C@H](O)[C@@H](C(=O)NCCN(C)C)[C@H](C2)O3)[C@H](O)C(NCC2(O)OC[C@@H](O)[C@@H](O)[C@@H]2O)[C@@H]1O.Cl (some centres unmarked) [Compound 41]
stdout: 1

stdin: # query: MIC Aspergillus niger ATCC 16404 of entry CC1C=CC=CC=CC=CC=CC=CC=CC(OC2OC(C)C(O)C(NCC3(O)OCC(O)C(OC4OC(CO)C(O)C(O)C4O)C3O)C2O)CC2OC(O)(CC(O)C(O)CCC(O)CC(O)CC(O)CC(=O)OC(C)C(C)C1O)CC(O)C2C(=O)O (centres unmarked) [Compound 19]
stdout: 2

stdin: # query: MIC Aspergillus niger ATCC 16404 of entry CC1O[C@@H](O[C@H]2/C=C/C=C/C=C/C=C/C=C/C=C/C=C/[C@H](C)[C@@H](O)[C@@H](C)[C@H](C)OC(=O)C[C@H](O)C[C@H](O)C[C@H](O)CC[C@@H](O)[C@H](O)C[C@]3(O)C[C@H](O)[C@@H](C(=O)NCCN(C)C)[C@H](C2)O3)[C@H](O)C(NCC2(O)OC[C@@H](O)[C@H](O)[C@@H]2O)[C@@H]1O (some centres unmarked) [Compound 42, N-tagatopyronosyl S44HP DMAE amide]
stdout: 1

stdin: # query: MIC Aspergillus niger ATCC 16404 of entry CCOC(=O)CNC(=O)C1C(O)CC2(O)CC(O)C(O)CCC(O)CC(O)CC(O)CC(=O)OC(C)C(C)C(O)C(C)C=CC=CC=CC=CC=CC=CC=CC(OC3OC(C)C(O)C(N)C3O)CC1O2 (centres unmarked) [Compound 9]
stdout: 2

stdin: # query: MIC Aspergillus niger ATCC 16404 of entry COC(=O)C(C)NC(=O)C1C(O)CC2(O)CC(O)C(O)CCC(O)CC(O)CC(O)CC(=O)OC(C)C(C)C(O)C(C)C=CC=CC=CC=CC=CC=CC=CC(OC3OC(C)C(O)C(N)C3O)CC1O2 (centres unmarked) [Compound 10]
stdout: 4

stdin: # query: MIC Aspergillus niger ATCC 16404 of entry CC1O[C@@H](O[C@H]2/C=C/C=C/C=C/C=C/C=C/C=C/C=C/[C@H](C)[C@@H](O)[C@@H](C)[C@H](C)OC(=O)C[C@H](O)C[C@H](O)C[C@H](O)CC[C@@H](O)[C@H](O)C[C@]3(O)C[C@H](O)[C@@H](C)[C@H](C2)O3)[C@H](O)C(NCc2ccc(N(C)C)cc2)[C@@H]1O (some centres unmarked) [Compound 50]
stdout: 2
